# Measurement target: T1, human GPC3 on cells (human, UniProt P51654 25-554)
# T1 construct: whole, on cells; over-expressed on CHOK1 cells or endogenous on HEPG2, Hep3B and Huh-7 hepatocellular carcinoma cells; the cell line is named under assay; also called GPC3-CHOK1 cells; human GPC3 over-expressed CHOK1 cells
# Test: FACS, GPC3-CHOK1 cells
Measure: EC50
Kindly report the value followed by its unit.

The binder Hu 52H5D3B8-7 (antibody, V domains shown, humanized 52H5D3B8; also called 52H5D3B8 VH3 + VL0) VH: EVQLVQSGAEVKKPGASVKVSCKASGYTFTDYEMHWVRQAPGQGLEWMGAIHPGSGGTAYNQKFKGRVTMTADKSISTAYMELSRLRSDDTAVYYCTRFYSYAYWGQGTLVTVSS VL: DVVMTQTPLSLSVTPGQPASISCRSSQSLVHSNGNTYLQWYLQKPGQSPQLLIYKVSNRFSGVPDRFSGSGSGTDFTLKISRVEAEDVGVYYCSQSIHVPYTFGGGTKVEIK showed EC50 equal to 0.467 nM

The binder Y035 CDRs with Hu 52H5D3B8-7 FRs (antibody, V domains shown) VH: EVQLVQSGAEVKKPGASVKVSCKASGYTFTDYEMHWVRQAPGQGLEWMGAIHPGSGDTAYNQRFKGRVTMTADKSISTAYMELSRLRSDDTAVYYCTRFYSYAYWGQGTLVTVSS VL: DVVMTQTPLSLSVTPGQPASISCRSSQSLVHSNGNTYLQWYLQKPGQSPQLLIYKVSNRFSGVPDRFSGSGSGTDFTLKISRVEAEDVGVYYCSQSIYVPYTFGGGTKVEIK showed EC50 equal to 0.985 nM

The binder Hu 52H5D3B8-8 (antibody, V domains shown, humanized 52H5D3B8; also called 52H5D3B8 VH3 + VL1) VH: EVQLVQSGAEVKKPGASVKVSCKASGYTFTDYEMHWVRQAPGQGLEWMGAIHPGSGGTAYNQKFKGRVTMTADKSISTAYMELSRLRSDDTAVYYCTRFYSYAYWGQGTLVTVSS VL: DVVMTQTPLSLSVTPGQPASISCRSSQSLVHSNGNTYLQWYLQKPGQSPQLLIYKVSNRFSGVPDRFSGSGSGTDFTLKISRVEAEDVGVYFCSQSIHVPYTFGGGTKVEIK showed EC50 equal to 0.434 nM

The binder Hu 52H5D3B8-7/8 CDRs with Y035 FRs (antibody, V domains shown) VH: EVQLVQSGAEVKKPGASVKVSCKASGYTHSDYEMHWVRQAPGQGLEWMGAIHPGSGGTAYNQKFKGRVTITADKSTSTAYMELSSLRSEDTAVYYCARFYSYAYWGQGTLVTVSA VL: DIVMTQTPLSLPVTPGEPASISCRSSQSLVHSNGNTYLQWYLQKPGQSPQLLIYKVSNRFSGVPDRFSGSGSGTDFTLKISRVEAEDVGVYYCSQSIHVPYTFGQGTKLEIKR showed EC50 equal to 0.798 nM
